system: MIA PaCa-2 cells; experiment: Growth inhibition activity on KRAS-G12C mutant cell line (MIA PaCa-2), CellTiter-Glo 3D; format: cell-based, human; details: Homo sapiens, MIA PaCa-2, 72 h, MIA PaCa-2, 3-day culture with compound
pIC50: −log10 of the molar value.
assay_endpoint: pIC50

A = COCC(C)(C)NC/C=C/C(=O)Nc1c(F)cc(C(=O)c2ccc3c(-c4cc5ncn(C)c5cc4C(F)(F)F)cccn23)cc1F
B = CO[C@H]1CC[C@H](NC/C=C/C(=O)Nc2c(F)cc(C(=O)c3ccc4c(-c5c(C6CC6)cc6c(nc(C)n6C)c5Cl)cccn34)cc2F)CC1
C = CO[C@H]1CC[C@H](NC/C=C/C(=O)Nc2c(F)cc(C(=O)c3cc(C(N)=O)c4c(-c5c(C)cc6c(nc(C)n6C)c5Cl)cccn34)cc2F)CC1
D = Cc1nc2cc(-c3cccn4c(C(=O)c5cc(F)c(NC(=O)/C=C/CNC(C)(C)CF)c(F)c5)ccc34)c(C(F)(F)F)cc2n1C
Ask: I'd appreciate it if you sorted the entries above by their pIC50, lowest to highest. The labels, placed in the requested order, form the answer.
Result: C, D, A, B

----------
tested on: MIA PaCa-2 cells; test: Growth inhibition activity on KRAS-G12C mutant cell line (MIA PaCa-2), CellTiter-Glo 3D; type: cell-based, human; conditions: MIA PaCa-2, 3-day culture with compound
assay_endpoint: IC50 (nM)

As a guide, the following entries are already answered.
CO[C@H]1CC[C@H](NC/C=C/C(=O)Nc2c(F)cc(C(=O)c3ccc4c(-c5c(C)cc6c(ncn6C)c5C)cccn34)cc2F)CC1 (single isomer, unassigned) [Example 34-2] :: 310
CO[C@H]1CC[C@H](NC/C=C/C(=O)Nc2c(F)cc(C(=O)c3ccc4c(-c5c(Cl)cc6c(ncn6C)c5Cl)cccn34)cc2F)CC1 (single isomer, unassigned) [Example 15-2] :: 220
CO[C@H]1CC[C@H](NC/C=C/C(=O)Nc2c(F)cc(C(=O)c3ccc4c(-c5c(C)cc6c(ncn6C)c5Cl)cccn34)cc2F)CC1 (single isomer, unassigned) [Example 12-2] :: 270
COc1c(-c2cccn3c(C(=O)c4cc(F)c(NC(=O)/C=C/CNC(C)(C)C)c(F)c4)ccc23)c(C)cc2c1nc(C)n2C (single isomer, unassigned) [Example 40-2] :: 73
C=Cc1cc(C(=O)c2cc(F)c(NC(=O)/C=C/CNC3(C)CC3)c(F)c2)n2cccc(-c3c(OC)cc4c(nc(C)n4C)c3F)c12 (single isomer, unassigned) [Example 111-2] :: 191
CO[C@H]1CC[C@H](NC/C=C/C(=O)Nc2c(F)cc(C(=O)c3ccc4c(-c5c(C)cc6c(ncn6C)c5C)cccn34)cc2F)CC1 (single isomer, unassigned) [Example 34-1] :: 130
CO[C@H]1CC[C@H](NC/C=C/C(=O)Nc2c(F)cc(C(=O)c3ccc4c(-c5c(Cl)cc6c(ncn6C)c5Cl)cccn34)cc2F)CC1 (single isomer, unassigned) [Example 15-1] :: 46

P = COc1cc2c(nc(C)n2C)c(Cl)c1-c1cccn2c(C(=O)c3cc(F)c(NC(=O)/C=C/CN[C@H]4CC[C@H](OC)CC4)c(F)c3)ccc12 (single isomer, unassigned) [Example 35-1]
Q = CCc1cc2c(nc(C)n2C)c(Cl)c1-c1cccn2c(C(=O)c3cc(F)c(NC(=O)/C=C/CN[C@H]4CC[C@H](OC)CC4)c(F)c3)ccc12 (single isomer, unassigned) [Example 22-2]
R = Cc1cc2c(ncn2C)c(Cl)c1-c1cccn2c(C(=O)c3cc(F)c(NC(=O)/C=C/CNC(C)(C)C)c(F)c3)ccc12 (single isomer, unassigned) [Example 13-2]
Ask: Ranking field: IC50; order: falling. The labels, placed in the requested order, form the answer.
Result: Q, R, P
(Q: 410 nM, R: 220 nM, P: 35 nM)
